Tested on: BT-549 cells
Experiment: In vitro anti-proliferation (CellTiter-Glo, 72 hr), BT-549
Type: cell-based
Details: complexed with Cu; multiplied by 337/776=0.43; column 3 duplicate of column 2; listed as W1469; read-out: IC50 (adjusted to MW of copper complex)
endpoint_name: pIC50
Note on units: pIC50 is unitless, being -log10 of a concentration expressed in mol/L.

Exercise: Could you tell me which pIC50 is on file for O=C(O)[C@H]1O[C@@H](Oc2ccc3cccc(O)c3n2)[C@H](O)[C@@H](O)[C@@H]1O ?
Solution: 5.43

---

System: DU-145 cells
Assay: In vitro anti-proliferation (CellTiter-Glo, 72 hr), DU-145
Format: cell-based, human
Conditions: complexed with Cu; multiplied by 337/776=0.43; column 3 duplicate of column 2; listed as W1469; read-out: IC50 (adjusted to MW of copper complex)
endpoint_name: IC50
Field note: include the unit after the figure.

Exercise: Could you tell me which IC50 is on file for O=C(O)[C@H]1O[C@@H](Oc2ccc3cccc(O)c3n2)[C@H](O)[C@@H](O)[C@@H]1O ?
Solution: 3.7 µM

Source of measurements: patent US20260345654A1
